target under test: NPA5 (influenza A virus A/Anhui/1/2005 …, UniProt Q6DPE5 1-489)
assay remarks: ELISA on recombinant NP

binder	EC50
NP11 (antibody, V domains shown) VH: EVQLVESGGGLVQPGGSLRLSCAASGFTIDSYGIHWVRQAPGKGLEWVAWIGPSGGSTFYADSVKGRFTISADTSKNTAYLQMNSLRAEDTAVYYCARGYFWFFDYWGQGTLVTVSS VL: DIQMTQSPSSLSASVGDRVTITCRASQDVSSWVAWYQQKPGKAPKLLISWSGYLYSGVPSRFSGSGSGTDFTLTISSLQPEDFATYYCQQGFNYPLTFGQGTKVEIKR	0.06 nM
NP4 (antibody, V domains shown) VH: EVQLVESGGGLVQPGGSLRLSCAASGFTISNSSIHWVRQAPGKGLEWVAGIGPSGGYTFYADSVKGRFTISADTSKNTAYLQMNSLRAEDTAVYYCARFHSHNSYYSYSHYGYMDYWGQGTLVTVSS VL: DIQMTQSPSSLSASVGDRVTITCRASQDVGWGVAWYQQKPGKAPKLLISGPSSLYSGVPSRFSGSGSGTDFTLTISSLQPEDFATYYCQQYFNYPITFGQGTKVEIKR	0.37 nM
NP14 (antibody, V domains shown) VH: EVQLVESGGGLVQPGGSLRLSCAASGFTIDNGGIHWVRQAPGKGLEWVASIWPSWGSTSYADSVKGRFTISADTSKNTAYLQMNSLRAEDTAVYYCARFNFGVFGVMDYWGQGTLVTVSS VL: DIQMTQSPSSLSASVGDRVTITCRASQDVDNDVAWYQQKPGKAPKLLIYGPRGLYSGVPSRFSGSGSGTDFTLTISSLQPEDFATYYCQQYSSWPLTFGQGTKVEIKR	1.7 nM
NP13 (antibody, V domains shown) VH: EVQLVESGGGLVQPGGSLRLSCAASGFTINNYGIHWVRQAPGKGLEWVASIGPYGGSTYYADSVKGRFTISADTSKNTAYLQMNSLRAEDTAVYYCARFGYFNWLDMDYWGQGTLVTVSS VL: DIQMTQSPSSLSASVGDRVTITCRASQDVGYWVAWYQQKPGKAPKLLISSASGLYSGVPSRFSGSGSGTDFTLTISSLQPEDFATYYCQQGWDWPITFGQGTKVEIKR	0.09 nM
NP9 (antibody, V domains shown) VH: EVQLVESGGGLVQPGGSLRLSCAASGFTINNGWIHWVRQAPGKGLEWVAGIGPYWGFTSYADSVKGRFMISADTSKNTAYLQMNSLRAEDTAVYYCARFDSDHDHHYSYYYYYDNGYMDYWGQGTLVTVSS VL: DIQMTQSPSSLSASVGDRVTITCRASQDVWFSVAWYQQKPGKAPKLLIYGTTSLYSGVPSRFSGSGSGTDFTLTISSLQPEDFATYYCQQYFNYPLTFGQGTKVEIKR	1.12 nM
NP12 (antibody, V domains shown) VH: EVQLVESGGGLVQPGGSLRLSCAASGFTIDNGYIHWVRQAPGKGLEWVASIWPSWGSTYYADSVKGRFTISADTSKNTAYLQMNSLRAEDTAVYYCARGFYYYGDYWGQGTLVTVSS VL: DIQMTQSPSSLSASVGDRVTITCRASQDVGGNVAWYQQKPGKAPKLLISSTAGLYSGVPSRFSGSGSGTDFTLTISSLQPEDFATYYCQQYYDFPLTFGQGTKVEIKR	9.07 nM
NP10 (antibody, V domains shown) VH: EVQLVESGGGLVQPGGSLRLSCAASGFTIDNGSIHWVRQAPGKGLEWVAWIWPFGGSTSYADSVKGRFTISADTSKNTAYLQMNSLRAEDTAVYYCARSWSSGYDYWGQGTLVTVSS VL: DIQMTQSPSSLSASVGDRVTITCRASQDVSWSVAWYQQKPGKAPKLLISGSTWLYSGVPSRFSGSGSGTDFTLTISSLQPEDFATYYCQQYSNSPITFGQGTKVEIKR	0.28 nM
